system: SN12C renal; assay: NCI-60 one-dose screen, 48 h (100 = growth as untreated, 0 = no growth, -100 = all killed); conditions: 10 µM
Compounds without any hit were thinned out: in the full panel of roughly 83,000, 20% have a hit.
Returns 1 (yes) if the recorded growth is greater than or equal to 80%, and 0 (no) otherwise.

Structure smiles string: CCc1ccccc1-n1c(N)c(C#N)c(-c2ccc(OC)c(OC)c2)c(C#N)c1=O
Class name: 1 (yes)
--
Structure smiles string: CC(C)(C)c1cc(NC(=O)Cc2ccc(-c3cnc4cc(-c5cnn(CCN6CCOCC6)c5)ccc4n3)cc2)no1
Class name: 0 (no)
--
Structure smiles string: CC1(C)OB(c2ccc(Cn3cc(F)c(=O)[nH]c3=O)cc2)OC1(C)C
Class name: 1 (yes)
--
Structure smiles string: CC#C[C@]1(O)CC[C@H]2[C@@H]3CCC4=CC(=O)CCC4=C3[C@@H](c3ccc4c(c3)OCO4)C[C@@]21C
Class name: 1 (yes)
--
Structure smiles string: O=C(O)c1sccc1O
Class name: 0 (no)
